study_system: MLE dsRBD1,2 (UniProt P24785 1-257)
Sequence (P24785 1-257): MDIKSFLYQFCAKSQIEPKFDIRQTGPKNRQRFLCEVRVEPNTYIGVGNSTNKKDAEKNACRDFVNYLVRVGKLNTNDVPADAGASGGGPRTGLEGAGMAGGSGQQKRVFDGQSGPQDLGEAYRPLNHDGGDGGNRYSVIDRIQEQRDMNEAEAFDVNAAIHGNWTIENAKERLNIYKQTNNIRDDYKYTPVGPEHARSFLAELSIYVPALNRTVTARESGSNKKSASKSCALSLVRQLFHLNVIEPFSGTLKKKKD
test_method_notes: ITC; n=0.95; Filter binding: 20 mM HEPES/NaOH pH 8.0, 150 mM NaCl, 5 mM MgCl2, on ice; ITC: 10 mM HEPES pH 8.0, 75 mM NaCl, 2.5 mM MgCl2, 1 mM b-mercaptoethanol, 20 C; NMR:
experimental_setup: protein: recombinant; tags: N-terminal His6 removed by TEV; hairpin
measured_attribute: Kd
Could you kindly put the unit after your number?

Problem: Reported Kd for GUGUAAAAUGUUGCAAUAUAUAGUAACGUUUUACGC (structured_RNA) [SL7 14merLoop] : what is it?
Solution: 4.66 µM
